Tested on: PKC-neg-40B-Luc minigene in 293T cells
experimental.details: Luciferase splicing reporter screen of the LOPAC 1280 library
Assay type: cell-based
condition.parameters: luciferase fold-increase over the Average Median norm for each plate exclusive of Esrp1 control wells; 293T reporter cells, 24 hours
So basically, if Avg Med norm comes in under 2 fold it's Criterion met, and if it's 2 fold or more it's Criterion not met.

Worked set:
compound="CNC[C@H](O)c1ccc(O)c(O)c1.O=C(O)C(O)C(O)C(=O)O [(−)-Epinephrine bitartrate]" class_name="Criterion met"
compound="Cc1ccc(O)c(N=Nc2ccccc2)n1 [SIB 1757, 6-Methyl-2-(phenylazo)-3-pyridinol]" class_name="Criterion not met"
compound="CCCCCCCCCCCCCC(=O)O[C@@H]1[C@@H](C)[C@@]2(O)[C@@H](C=C(CO)C[C@]3(O)C(=O)C(C)=C[C@@H]23)[C@@H]2C(C)(C)[C@]12OC(C)=O [Phorbol 12-myristate 13-acetate]" class_name="Criterion not met"
compound="Clc1ccccc1C(c1ccccc1)(c1ccccc1)n1ccnc1 [Clotrimazole, 1-(o-Chlorotrityl)-imidazole]" class_name="Criterion met"
compound="CCNC(=O)[C@H]1O[C@@H](n2cnc3c(NCc4ccccc4)ncnc32)[C@H](O)[C@@H]1O [N6-Benzyl-5′-N-ethylcarboxamidoadenosine]" class_name="Criterion met"

Turning to the following compound.
INPUT: Does this compound meet the criterion Avg Med norm < 2 fold? NC(N)=NC(=O)c1nc(Cl)c(N2CCCCCC2)nc1N [5-(N,N-hexamethylene)amiloride]
OUTPUT: Criterion met
